- system-tested: human CXCR3 (N-delta 4) (Homo sapiens)
- Construct: CD8 leader (N); Flag tag; expressed in transfected cells; membrane preparation
- Sequence (P49682 5-368 limits assumed): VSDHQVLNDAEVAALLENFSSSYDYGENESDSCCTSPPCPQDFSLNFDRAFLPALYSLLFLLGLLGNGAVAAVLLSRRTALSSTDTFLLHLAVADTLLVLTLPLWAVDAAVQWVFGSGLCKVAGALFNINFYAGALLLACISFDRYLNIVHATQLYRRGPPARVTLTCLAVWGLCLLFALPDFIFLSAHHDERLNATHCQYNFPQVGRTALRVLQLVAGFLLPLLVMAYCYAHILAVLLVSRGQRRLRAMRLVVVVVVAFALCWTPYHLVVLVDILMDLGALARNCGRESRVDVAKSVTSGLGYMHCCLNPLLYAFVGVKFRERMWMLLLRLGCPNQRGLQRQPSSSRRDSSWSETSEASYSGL
- test-name: Human CXCR3 (N-delta 4) scintillation proximity assay (SPA), [125I] IP-10 binding to Ba/F3-hCXCR3 membranes
- run-conditions: IC50 rating; [125I] IP-10 displacement, human CXCR3; read-out: IC50
- Source text: The inventive compounds can readily be evaluated to determine activity at the CXCR3 receptors by known methods, such as, for example, development of a human CXCR3 (N-delta 4) Binding Assay. The DNA encoding human CXCR3 was cloned by PCR using human genomic DNA (Promega, Madison, Wis.) as a template. The PCR primers were designed based on the published sequence of human orphan receptor GPR9 (1) with incorporated restriction sites, a Kozak consensus sequence, CD8 leader and Flag tag. […]
recorded-endpoint: IC50

## Task Please report the recorded IC50 for CCC(C)(C)C1CCC(N2CCC(N3C[C@H](C)N(c4ncc(Nc5c(NCC(F)(F)F)c(=O)c5=O)cc4Cl)C[C@H]3C)CC2)C1 (stereo partly shown) [Compound 171] .
## Result > 0.1 µM

## Task Please report the recorded IC50 for CC[C@H]1CN(c2ncc(NC3=NS(=O)(=O)N=C3N)cc2Cl)CCN1C1CCN(Cc2ccc(OC(F)(F)F)cc2)CC1 [Compound 262] .
## Result 0.025 to 0.1 µM

## Task Please report the recorded IC50 for C[C@@H]1CN(c2ncc(Nc3c(NCC(F)(F)F)c(=O)c3=O)cc2Cl)[C@@H](C)CN1C1CCN(Cc2ccccc2Cl)CC1 [Compound 155] .
## Result > 0.1 µM

## Task Please report the recorded IC50 for CCCCNC1=NS(=O)(=O)N=C1Nc1cnc(N2CCN(C3CCN(Cc4ccc(Cl)cc4C#N)CC3)[C@@H](CC)C2)c(Cl)c1 [Compound 273] .
## Result > 0.1 µM

## Task Please report the recorded IC50 for CC[C@H]1CN(c2c(F)cc(Nc3c(NC4CC4)c(=O)c3=O)cc2Cl)CCN1C1CCN(Cc2ccc(Cl)cc2F)CC1 [Compound 105] .
## Result 0.025 to 0.1 µM

## Task Please report the recorded IC50 for CC[C@H]1CN(c2ncc(Nc3c(N4CCOCC4)c(=O)c3=O)cc2Cl)CCN1C1CCN(Cc2ccc(Cl)cc2F)CC1 [Compound 96] .
## Result < 0.025 µM

## Task Please report the recorded IC50 for C[C@H]1CN(c2ncc(NN)cc2Cl)CCN1C1CCN(Cc2ccc(Cl)cc2F)CC1 [Compound 231] .
## Result > 0.1 µM

====

- system-tested: human CXCR3 (N-delta 4) (Homo sapiens)
- Construct: CD8 leader (N); Flag tag; expressed in transfected cells; membrane preparation
- test-name: Human CXCR3 (N-delta 4) scintillation proximity assay (SPA), [125I] IP-10 binding to Ba/F3-hCXCR3 membranes
- run-conditions: IC50 rating; [125I] IP-10 displacement, human CXCR3; read-out: IC50
- Source text: The inventive compounds can readily be evaluated to determine activity at the CXCR3 receptors by known methods, such as, for example, development of a human CXCR3 (N-delta 4) Binding Assay. The DNA encoding human CXCR3 was cloned by PCR using human genomic DNA (Promega, Madison, Wis.) as a template. The PCR primers were designed based on the published sequence of human orphan receptor GPR9 (1) with incorporated restriction sites, a Kozak consensus sequence, CD8 leader and Flag tag. […]
Assign IC50 to each entry below.

## Task Please report the recorded IC50 for CC[C@H]1CN(c2ncc(Nc3c(NC4CCC4)c(=O)c3=O)cc2Cl)CCN1C1CCN(Cc2ccc(Cl)cc2F)CC1 .
## Result < 25 nM

## Task Please report the recorded IC50 for CC[C@H]1CN(c2ncc(NS(N)(=O)=O)cc2Cl)CCN1C1CCN(Cc2ccc(Cl)cc2F)CC1 .
## Result < 25 nM

## Task Please report the recorded IC50 for CC[C@H]1CN(c2ncc(NS(N)(=O)=O)cc2Cl)CCN1C1CCN(C(=O)c2ccc(Cl)cc2)CC1 .
## Result 25 to 100 nM

## Task Please report the recorded IC50 for CC[C@H]1CN(c2ncc(NS(C)(=O)=O)cc2Cl)CCN1C1CCN(C(=O)c2ccc(OC(F)(F)F)cc2)CC1 .
## Result > 100 nM
